B1: HDV Ribozyme (parent)
chain: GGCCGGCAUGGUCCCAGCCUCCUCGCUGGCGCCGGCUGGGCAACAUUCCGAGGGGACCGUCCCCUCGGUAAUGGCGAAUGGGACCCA

Variants of: B1
EXPERIMENTAL_PROTOCOL: self-cleavage, relative activity (ratio to wild type); higher = more cleavage; co-transcriptional
Label scheme for self-cleavage: lower than 0.2 is no, 0.2 and above is yes.

Task item: Exam item: decide whether the reported self-cleavage for C21A G38U is at least 0.2.
Reply: no

Task item: Now give it for C64U A87G too.
Reply: yes

Task item: Now give it for C48U G67C too.
Reply: yes

Task item: Now give it for C36A C41U too.
Reply: no

Task item: Now give it for A43C A51C too.
Reply: yes

Task item: Now give it for G34U G55C too.
Reply: no

Task item: Now give it for C13A G74U too.
Reply: no

Task item: Now give it for A8G C49G too.
Reply: yes

Task item: Now give it for G40C A43C too.
Reply: no

Task item: Now give it for G54U C66A too.
Reply: yes

Task item: Now give it for C24U A56G too.
Reply: yes

Task item: Now give it for G17A A71C too.
Reply: no

Task item: Now give it for G28C A42G too.
Reply: no

Task item: Now give it for C7A A70C too.
Reply: yes

Task item: Now give it for C14A A71U too.
Reply: yes

Task item: Now give it for G59C U72G too.
Reply: yes

Task item: Now give it for C32U G54U too.
Reply: yes

Task item: Now give it for G25A C58U too.
Reply: yes

Task item: Now give it for U47C G54A too.
Reply: yes

Task item: Now give it for C18A G35U too.
Reply: no

Task item: Now give it for G40U C66G too.
Reply: yes

Task item: Now give it for C48A C61G too.
Reply: yes

Task item: Now give it for C48A C86U too.
Reply: yes

Task item: Now give it for G28C U37A too.
Reply: yes

Task item: Now give it for U69C C86A too.
Reply: yes

Task item: Now give it for C24U C61A too.
Reply: yes

Task item: Now give it for A71U C84G too.
Reply: yes

Task item: Now give it for U27A G52C too.
Reply: yes

Task item: Now give it for G82C C86G too.
Reply: no

Task item: Now give it for C14A U37G too.
Reply: no

Task item: Now give it for C57G A71G too.
Reply: yes

Task item: Now give it for C14A C22U too.
Reply: no

Task item: Now give it for G2U C7U too.
Reply: no

Task item: Now give it for C58G C86U too.
Reply: yes

Task item: Now give it for G11C G76U too.
Reply: yes

Task item: Now give it for A8G C13A too.
Reply: no

Task item: Now give it for C24G G53U too.
Reply: no

Task item: Now give it for U23A G31U too.
Reply: yes

Task item: Now give it for C15A G55C too.
Reply: yes

Task item: Now give it for G1C G34U too.
Reply: no
